# TGI annotations
tested on: SK-MEL-2 melanoma; experiment: NCI tumour cell line growth inhibition, 48 h

>  <compound>
C=C1CCOC2(C(O)C(C)(O)CO)NC(=O)C1(O)NC2=O (stereo unspecified)

>  <TGI>
> 100 µM

$$$$
>  <compound>
COc1ccc(-c2[nH]ncc2Nc2cc(OC)c(OC)c(OC)c2)cc1

>  <TGI>
> 100 µM

$$$$
>  <compound>
CCO/C(O)=c1/s/c(=C(\C#N)c2nc3ccccc3[nH]2)n(-c2ccccc2)c1=N

>  <TGI>
> 100 µM

$$$$
>  <compound>
CN(C)N=Nc1ccc(S(N)(=O)=O)cc1

>  <TGI>
> 100 µM

$$$$
>  <compound>
Cc1c(C(N)=O)sc2nc(C)n(/N=c3\scc(-c4ccccc4)n3Cc3ccccc3)c(=O)c12

>  <TGI>
86.6 µM

$$$$
>  <compound>
CCN(CC)C(=S)SS(C)(=O)=O

>  <TGI>
33.2 µM

$$$$
